- Read-out: Tumor necrosis factor (Homo sapiens) (UniProt P01375)
- Sequence (P01375 whole entry, looked up): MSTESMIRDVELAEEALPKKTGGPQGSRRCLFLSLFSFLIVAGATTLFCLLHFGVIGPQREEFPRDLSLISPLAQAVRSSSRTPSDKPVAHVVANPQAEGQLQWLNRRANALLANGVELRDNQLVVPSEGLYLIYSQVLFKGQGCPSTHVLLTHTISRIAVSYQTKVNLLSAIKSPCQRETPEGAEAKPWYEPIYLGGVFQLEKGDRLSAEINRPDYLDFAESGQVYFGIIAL
- experiment: BSK_LPS_TNFa: BioMAP Diversity Plus: LPS Assay for Tumour Necrosis Factor alpha (TNFa) Biomarker Activity (AID 2283085)
- conditions: primary human HUVEC with PBMC; actives raise or lower the signal
The source made the active and inactive calls. How the source made its calls: active means hit-call score of the fitted dose curve at least 0.9, where 1 is the maximum; inactive means score below 0.9.
# valid calls are label 1 = active, label 0 = inactive; nothing else

Example cases with answers are listed next.
- molecule: "CC1(c2ccc(Oc3ccccc3)cc2)OC(=O)N(Nc2ccccc2)C1=O (configuration not stated)"
  class_name: "label 0"
- molecule: "CC(C)N(C(=O)COc1nnc(C(F)(F)F)s1)c1ccc(F)cc1"
  class_name: "label 1"
- molecule: "O=C(NC(=O)c1c(F)cccc1F)Nc1ccc(OC(F)(F)C(F)OC(F)(F)F)c(Cl)c1 (configuration not stated)"
  class_name: "label 0"

Just curious, what result did CNC(=O)/C=C(\C)OP(=O)(OC)OC get here?
label 0

Just curious, what result did O=C1c2ccccc2C(=O)N1SC(Cl)(Cl)Cl get here?
label 1

Just curious, what result did O=C(O)COc1ccc(Cl)cc1Cl get here?
label 0

Just curious, what result did Cc1[nH]c(=O)n(C(C)(C)C)c(=O)c1Cl get here?
label 0
